# details: Crystal; DTA

compound.string | Normal melting temperature / °C
NCCCCCCN | 38.5
c1ccc2ccccc2c1 | 81.54
NCCCCCCCCN | 51.73
